# Test: Pharmacokinetics in subjects with moderate hepatic impairment vs normal hepatic function (Example 5)
# Assay type: in vivo, human
# Condition Info: human, plasma and urine, oral, 10 mg, normal hepatic function; single 10 mg; read-out: CLR, geometric mean (% CV) (converted)
Recorded Endpoint: CL renal

CL renal reported for this compound `CCC(=O)N[C@@H]1CCCc2c(-c3ccc4c(c3)CCC(=O)N4C)cncc21` : 6.02 mL/min

* * *

# Test: Pharmacokinetics in subjects with varying degrees of renal function (Example 4)
# Assay type: in vivo, human
# Condition Info: human, plasma, oral, 10 mg, moderate to severe renal impairment eGFR 15-59 mL/min; single 10 mg; read-out: Vz/F, mean (SD)
Recorded Endpoint: Vd/F
Give me the value, and tack the unit on after it.

Value of measured Vd/F for the entry `CCC(=O)N[C@@H]1CCCc2c(-c3ccc4c(c3)CCC(=O)N4C)cncc21` : 142 L

* * *

# Test: clinical
# Condition Info: human, in vivo, CLR (urine), Mean
Recorded Endpoint: CL renal (mL/min)
Answers are plain numbers, in mL/min.

Record `CN(C)C(=N)N=C(N)N` . Reported CL renal: 441

* * *

Give measured Tmax for each item. Keep answers brief.
# Test: Plasma PK of baxdrostat and baxdrostat-M in the metformin crossover study (Example 6A)
# Format: in vivo, human
# Condition Info: human, single 10-mg dose of baxdrostat, read-out: Tmax, Mean
Answers are plain numbers, in h.

CCC(=O)N[C@@H]1CCCc2c(-c3ccc4c(c3)CCC(=O)N4C)cncc21 [baxdrostat] :: 1.68

compound CN1C(=O)CCc2cc(-c3cncc4c3CCCC4O)ccc21 (centres unmarked) [baxdrostat-M] , Tmax observed: 15.7

* * *

Consider the following molecules; for each one, report its AUC(0-t).
# Test: Plasma PK of baxdrostat and baxdrostat-M in the metformin crossover study (Example 6A)
# Type: in vivo, human
# Condition Info: human, single 10-mg dose of baxdrostat, read-out: AUC0-72, Mean
# Experimental: This study was designed as a phase 1, randomized, open-label, 2-period, crossover trial. Each subject participated in a screening period of up to 26 days followed by 2 inpatient treatment periods and a follow-up phone call. […] PK parameters were calculated using noncompartmental methods with SAS software, version 9.4 (SAS Institute). […] Plasma AUC0-72 was assessed only for baxdrostat and baxdrostat-M. […]
Answers are plain numbers, in ng·h/mL.

CCC(=O)N[C@@H]1CCCc2c(-c3ccc4c(c3)CCC(=O)N4C)cncc21 [baxdrostat] :: 2870

Reported AUC(0-t) ( CN1C(=O)CCc2cc(-c3cncc4c3CCCC4O)ccc21 (centres unmarked) [baxdrostat-M] ) = 264

* * *

# Test: Pharmacokinetics in subjects with varying degrees of renal function (Example 4)
# Assay type: in vivo, human
# Condition Info: human, plasma, oral, 10 mg, kidney failure eGFR <15 mL/min; single 10 mg; read-out: Tmax, mean (SD)
Recorded Endpoint: Tmax
Note: state the figure and append the unit.

Record `CCC(=O)N[C@@H]1CCCc2c(-c3ccc4c(c3)CCC(=O)N4C)cncc21` , field Tmax: 1.63 h

Source: patent US20260041679A1
